target: T1, Human EphA2 (Ecto) (Human, UniProt P29317 24-537); experiment: FP competition, tracer Compound 18
T1 construct: extracellular domain
T1 sequence (P29317 24-537): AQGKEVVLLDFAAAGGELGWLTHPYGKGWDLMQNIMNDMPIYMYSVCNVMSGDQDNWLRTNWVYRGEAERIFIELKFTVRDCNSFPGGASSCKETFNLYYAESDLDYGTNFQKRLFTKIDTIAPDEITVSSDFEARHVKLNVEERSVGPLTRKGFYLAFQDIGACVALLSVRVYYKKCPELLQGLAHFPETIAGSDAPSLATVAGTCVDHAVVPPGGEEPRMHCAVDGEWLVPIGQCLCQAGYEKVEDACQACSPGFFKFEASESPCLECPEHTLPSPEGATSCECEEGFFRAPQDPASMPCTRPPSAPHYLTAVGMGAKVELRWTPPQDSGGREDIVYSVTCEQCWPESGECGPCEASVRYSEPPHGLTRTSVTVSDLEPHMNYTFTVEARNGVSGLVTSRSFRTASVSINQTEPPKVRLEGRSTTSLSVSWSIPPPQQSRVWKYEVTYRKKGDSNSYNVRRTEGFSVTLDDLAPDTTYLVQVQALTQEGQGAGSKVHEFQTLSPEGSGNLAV
Starred links: 1 amine or outer side, 2 acyl side, 3 side chain; linkers in the order of their positions; H or OH if unused. Positions of bridges follow the written chain, without caps; N, C: chain ends. Non-standard residues stand in square brackets, D forms with d. Primed or numbered codes have the meaning given here. No end group written: not given here. TBMB′ = 1,3,5-tris(bromomethyl)benzene, 1,3,5-tris(methylene)benzene core, three thioethers to Cys; 4BenzylPro = 4-benzyl-pyrrolidine-2-carboxylic acid; 1Nal = N[C@@H](Cc1cccc2ccccc12)C(=O)O; TBMB = c1c(C[*:1])cc(C[*:3])cc1C[*:2]; Tle = CC(C)(C)[C@H](N)C(=O)O; Ac3c = NC1(C(=O)O)CC1; Aib = CC(C)(N)C(=O)O; Sar = CNCC(=O)O
parameter: Ki (nM)
Answer with a number only, understood to be in nM.

Guide cases for Ki, answers given:
binder: [Sar][Sar]AHDV[Aib]CPWGPFWCPVNRPGC (linker 8-15-22 via TBMB) [Bicycle Compound 220]
Ki [nM]: 0.83
--
binder: [Sar][Sar]AHDV[dA]CPWGPFWCPVNRPGC (linker 8-15-22 via TBMB) [Bicycle Compound 219]
Ki [nM]: 15
--
binder: Ac-[Sar][Sar]ADVHCPWGPFWCPVNRPGC (linker 7-14-21 via TBMB) [Bicycle Compound 148]
Ki [nM]: 1.2

**Query** // Ki lookup, key: Ac-[Sar][Sar]A[dD]DVTCP[1Nal]GPF[1Nal]CPVNRPGC (linker 8-15-22 via TBMB) [Bicycle Compound 283]
**Result** 0.28

**Query** Next binder: Ac-[Sar][Sar]A[dD]VTCPWGPNWCPVNRPGC (linker 7-14-21 via TBMB′) [Bicycle Compound 172]
**Result** 3.96

**Query** Next binder: Ac-[Sar][Sar]A[dD]VTC[Ac3c]WGPFWCPVNRPGC (linker 7-14-21 via TBMB′) [Bicycle Compound 165]
**Result** 185

**Query** Next binder: Ac-[Sar][Sar]A[dH]DVPCPWGPFWCPVNRPGC (linker 8-15-22 via TBMB) [Bicycle Compound 196]
**Result** 0.95

**Query** Next binder: Ac-[Sar][Sar]A[dD]VTCPWG[Aib]FWCP[Tle]NR[Aib]GC (linker 7-14-21 via TBMB′) [Bicycle Compound 180]
**Result** 3.83

**Query** Next binder: Ac-[Sar][Sar]A[dD]DVTCPWGPFWCPVNRPGC (linker 8-15-22 via TBMB) [Bicycle Compound 281]
**Result** 5.78

**Query** Next binder: Ac-[Sar][Sar]AH[dD]V[Sar]CPWGPFWCPVNRPGC (linker 8-15-22 via TBMB) [Bicycle Compound 212]
**Result** 4.95

**Query** Next binder: Ac-[Sar][Sar]A[dD]VTC[4BenzylPro]WGPFWCPVNRPGC (linker 7-14-21 via TBMB′) [Bicycle Compound 168]
**Result** 5.03
